Reported MIC is given for each of the following molecules.
System: Candida glabrata 90030
TEST_DESCRIPTION: MIC, NCCLS M27A broth dilution
Assay type: cell-based
CONDITION_PARAMETERS: RPMI 1640, MOPS pH 7

>  <MOLECULE>
O=c1n(-c2ccc(-n3cnnn3)cc2)cnn1C[C@@H]1CO[C@@](Cn2cncn2)(c2ccc(F)cc2F)C1 [Compound No. 9]

>  <SYSTEM_UNDER_TEST>
Candida glabrata 90030

>  <MIC [µg/mL]>
64

$$$$
>  <MOLECULE>
O=c1n(-c2ccc(OCc3ccccc3)cc2)cnn1C[C@H]1CO[C@@](Cn2cncn2)(c2ccc(F)cc2F)C1 [Compound No. 6]

>  <SYSTEM_UNDER_TEST>
Candida glabrata 90030

>  <MIC [µg/mL]>
2

$$$$
>  <MOLECULE>
O=c1n(-c2ccc(Cn3cncn3)cc2)cnn1C[C@@H]1CO[C@@](Cn2cncn2)(c2ccc(F)cc2F)C1 [Compound No. 4]

>  <SYSTEM_UNDER_TEST>
Candida glabrata 90030

>  <MIC [µg/mL]>
16

$$$$
>  <MOLECULE>
O=c1n(-c2ccc(O)cc2)cnn1C[C@H]1CO[C@@](Cn2cncn2)(c2ccc(F)cc2F)C1 [Compound No. 3]

>  <SYSTEM_UNDER_TEST>
Candida glabrata 90030

>  <MIC [µg/mL]>
16

$$$$
>  <MOLECULE>
O=c1n(-c2ccc(N3CCN(c4ccc(OCc5ccccc5)cc4)CC3)cc2)cnn1C[C@H]1CO[C@@](Cn2cncn2)(c2ccc(F)cc2F)C1 [Compound No. 7]

>  <SYSTEM_UNDER_TEST>
Candida glabrata 90030

>  <MIC [µg/mL]>
16

$$$$

----------
Tested on: Candida albicans Y-01-19
TEST_DESCRIPTION: MIC, NCCLS M27A broth dilution
Type: cell-based
CONDITION_PARAMETERS: RPMI 1640, MOPS pH 7
Parameter: MIC. Scope: all listed entries.
READOUT_NAME: MIC (µg/mL)

>  <ITEM_SMILES>
O=c1n(-c2ccc(-n3cnnn3)cc2)cnn1C[C@@H]1CO[C@@](Cn2cncn2)(c2ccc(F)cc2F)C1

>  <SYSTEM_UNDER_TEST>
Candida albicans Y-01-19

>  <SCALE_UNIT>
µg/mL

>  <RECORDED_RESULT>
64

$$$$
>  <ITEM_SMILES>
O=c1n(-c2ccc(OCc3ccccc3)cc2)cnn1C[C@H]1CO[C@@](Cn2cncn2)(c2ccc(F)cc2F)C1

>  <SYSTEM_UNDER_TEST>
Candida albicans Y-01-19

>  <SCALE_UNIT>
µg/mL

>  <RECORDED_RESULT>
1

$$$$
>  <ITEM_SMILES>
O=c1n(-c2ccc(N3CCN(c4ccc(OCc5ccccc5)cc4)CC3)cc2)cnn1C[C@H]1CO[C@@](Cn2cncn2)(c2ccc(F)cc2F)C1

>  <SYSTEM_UNDER_TEST>
Candida albicans Y-01-19

>  <SCALE_UNIT>
µg/mL

>  <RECORDED_RESULT>
16

$$$$
>  <ITEM_SMILES>
O=c1n(-c2ccc(O)cc2)cnn1C[C@H]1CO[C@@](Cn2cncn2)(c2ccc(F)cc2F)C1

>  <SYSTEM_UNDER_TEST>
Candida albicans Y-01-19

>  <SCALE_UNIT>
µg/mL

>  <RECORDED_RESULT>
8

$$$$
>  <ITEM_SMILES>
O=c1n(-c2ccc(Cn3cncn3)cc2)cnn1C[C@@H]1CO[C@@](Cn2cncn2)(c2ccc(F)cc2F)C1

>  <SYSTEM_UNDER_TEST>
Candida albicans Y-01-19

>  <SCALE_UNIT>
µg/mL

>  <RECORDED_RESULT>
16

$$$$
